# Test system: Inhibin beta A chain (activin A)
# protocol_text: INHBA (activin A) binders on microarrays, primary screen, biochemical, small-molecule microarray, 635 nm fluorescence scan (AID 1107);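 further: mouse activin A protein probed at 4.33 µg/mL on printed slides; score merges bound-protein fluorescence near 667 nm with spot signal-to-noise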
# conditions_used: small-molecule microarray binding, higher = more signal
quantity_kind: composite z-score
Please state the value as a number alone, without comment.

Solved cases (7 shown):
Which measured composite z-score value corresponds to `CO[C@H]1O[C@H](CO)[C@@H](OC(=O)Nc2cccc(F)c2)[C@H](OC(=O)c2cc3ccccc3[nH]2)[C@H]1OC(=O)c1cc2ccccc2[nH]1` ?
0.0912

Also, `O=C(CS)NCCCCCCNC(=O)[C@H]1C[C@H]2C(=O)NCC(=O)N2[C@H]1c1cccc(OCCO)c1` please.
0.665

Also, CC1C2C(CCCO)=CC(C3C(=O)N(C)C(=O)C23)N1Cc1cccc(OC(F)(F)F)c1 (stereo not drawn) please.
0.527

Also, `Cc1ccc(S[C@]2(C(=O)NC3CC3)CC(=O)N(C3Cc4ccccc4C3)[C@@H]2c2ccc(CO)cc2I)cc1` please.
0.771

Also, `C=C(C(=O)CC[C@H](OC(=O)c1ccccc1-c1ccccc1C(=O)O)c1ccc(OCCO)cc1)C(C)C` please.
0.548

Also, `C[C@]1(C(=O)NC2CC2)c2ccccc2C(=O)N(Cc2cc(F)cc(C(F)(F)F)c2)[C@H]1c1ccc(CO)cc1` please.
-0.672

Also, `CCOC(=O)C=C1C[C@@H](c2cccc([N+](=O)[O-])c2)O[C@@H](c2cccc([N+](=O)[O-])c2)O1` please.
0.594

# input for lookup
Which measured composite z-score value corresponds to CCN1C(=O)C2CC(=O)C3C(CN(S(=O)(=O)c4ccc(C)cc4)C3c3ccc(C)cc3)C2C1=O (stereo not drawn) ?
1.15

----------
# Tested on: Human papillomavirus type 1a protein E7 (residues 44-93)
# protocol_text: HPV1a E7 fragment binders on microarrays, primary screen, biochemical, small-molecule microarray, residues 44-93, 635 nm fluorescence (AID 1108);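 further: E7 fragment applied at 1 µg/mL in TBST for 1 h at 4 C; score combines spot fluorescence with its signal to noise ratio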
# conditions_used: small-molecule microarray binding, fluorescence 635 nm; higher = more signal
Outcome label depends on composite z-score relative to -0.5: at/above gives 1 (yes), below gives 0 (no).

Solved cases (5 shown):
Check if composite z-score >= -0.5 (inclusive). Item: CCCCN1CC=CC23O[C@@H]4C=CCCOC(=O)C4[C@H]2C(=O)N(CCO)[C@@H]3C1=O (stereo partly drawn)
0 (no)

Also, `CC(C)Cc1ccc(CN2CC[C@@H](NC(=O)c3ccccc3)C2)cc1` please.
0 (no)

Also, `COC(=O)C(CC#Cc1ccc2c(c1)[C@]1(C(=O)N2)[C@H](C(=O)N2CCCCCCC2)[C@H]2C(=O)O[C@H](c3ccccc3)[C@H](c3ccccc3)N2[C@@H]1c1ccc(OCCO)cc1)C(=O)OC` please.
1 (yes)

Also, CCCCCN1CC=CC23O[C@@H]4/C=C\CCCOC(=O)C4[C@H]2C(=O)N(CCO)[C@@H]3C1=O (stereo partly drawn) please.
1 (yes)

Also, `Cc1ccc(S[C@]2(C(=O)NC(C)C)CC(=O)N(Cc3ccccc3)[C@@H]2c2ccc(CO)cc2I)cc1` please.
1 (yes)

More entries:
Check if composite z-score >= -0.5 (inclusive). Item: `O=C(CS)NCCCCCCNC(=O)[C@H]1C[C@H]2C(=O)NCC(=O)N2[C@H]1c1cccc(OCCO)c1`
1 (yes)

Also, `CCCC[C@@H](O)C1=C(C)Cn2c(=O)n(-c3ccccc3)c(=O)n2[C@H]1CO` please.
0 (no)

Also, `Cc1ccc(S[C@]2(C(=O)NC(C)C)CC(=O)N(Cc3ccccc3)[C@@H]2c2ccc(CO)cc2)cc1` please.
0 (no)

----------
# measured_target: Streptavidin (Streptomyces avidinii)
# protocol_text: streptavidin binders on small-molecule microarray, primary screen, artefact control for SMM compound annotation, biophysical, 635/667 nm fluorescence (AID 1147);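 further: signal reflects streptavidin binding to arrayed compounds as a control protein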
# conditions_used: streptavidin binding, higher = more signal
quantity_kind: composite z-score
Please state the value as a number alone, without comment.

Which measured composite z-score value corresponds to O=C1NC(=O)C2C1C=CC(C(O)C(c1ccccc1)c1ccccc1)N2Nc1ccccn1 (stereo not given) ?
-0.0787

Also, `COCCOC(=O)N1C(=O)[C@@]2(c3cc(C#CCC(C(=O)OC)C(=O)OC)ccc31)[C@H](c1ccc(O)cc1)N1[C@H](c3ccccc3)[C@H](c3ccccc3)OC(=O)[C@H]1[C@@H]2C(=O)N1CCc2cc(OC)c(OC)cc2C1` please.
-0.341

Also, `O=C/C=C/c1ccc(-c2ccccc2)cc1` please.
0.175

Also, CN1C(=O)C2C=CC(C(O)c3cccs3)N(N(c3ccccc3)c3ccccc3)C2C1=O (stereo not given) please.
0.827

Also, `COc1ccc(C#Cc2ccc3c(c2)[C@]2(C(=O)N3)[C@H](c3ccccc3OCCO)N3[C@H](c4ccccc4)[C@H](c4ccccc4)OC(=O)[C@H]3[C@@H]2C(=O)NC[C@H](O)c2ccccc2)cc1` please.
0.448

Also, O=C1NC(=O)C2C1C=CC(C(O)c1ccc(F)cc1)N2Nc1ccc(Cl)cc1Cl (stereo not given) please.
-0.346

Also, `C=C[C@H](OC)[C@@H](O)c1ccc(OC)c(O)c1` please.
-1.56

Also, `COC(=O)C(CC#Cc1ccc2c(c1)[C@]1(C(=O)N2)[C@H](C(=O)NC[C@H](O)c2ccccc2)[C@H]2C(=O)O[C@H](c3ccccc3)[C@H](c3ccccc3)N2[C@@H]1c1ccc(O)cc1)C(=O)OC` please.
-0.765

Also, `C=C[C@@H](CO)NS(=O)(=O)c1ccc(Br)cc1` please.
-0.232

Also, `COc1cc(Cc2cc3c(c(CCc4ccccc4)n2)[Si](C(C)C)(C(C)C)O[C@H]3c2ccccc2)cc(OC)c1OC` please.
0.537

Also, `Cc1ccc(S[C@]2(C(=O)NC(C)C)CC(=O)N(Cc3ccccc3)[C@@H]2c2ccc(CO)cc2)cc1` please.
-0.375

Also, `C=CCNC(=O)[C@@H]1[C@H]2C(=O)O[C@H](c3ccccc3)[C@H](c3ccccc3)N2[C@H](c2ccc(OCCO)cc2)[C@@]12C(=O)Nc1ccc(C#CCNC(N)=O)cc12` please.
0.987

Also, `C=C(C(=O)CC[C@@H](OC(=O)c1cccnc1)c1cccc(OCCO)c1)C(C)C` please.
-0.0835

Also, C=CCC(OC(C)=O)[C@@H]1[C@@H](N(Cc2cccc3ccccc23)C(=O)c2ccc(C)cc2)c2cc(OCCCO)ccc2N1C(=O)Cc1ccc2ccccc2c1 (stereo not given in full) please.
0.652

Also, CN1C(=O)C2C(C1=O)C1C=C(CCCO)C2C(C2CC2)N1C (stereo not given) please.
-0.45

----------
# measured_target: Fibroblast growth factor 10 (Homo sapiens) (UniProt O15520)
# Sequence (O15520 whole entry, looked up): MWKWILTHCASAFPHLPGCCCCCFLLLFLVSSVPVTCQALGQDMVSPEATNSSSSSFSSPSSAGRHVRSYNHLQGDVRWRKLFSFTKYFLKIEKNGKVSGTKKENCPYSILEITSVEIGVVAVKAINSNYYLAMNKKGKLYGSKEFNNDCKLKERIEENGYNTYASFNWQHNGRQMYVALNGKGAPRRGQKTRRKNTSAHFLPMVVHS
# protocol_text: FGF10 binders on small-molecule microarrays, primary screen, biochemical, small-molecule microarray, 635 nm fluorescence (AID 1102)
# conditions_used: FGF10 binding, fluorescence 635 nm, higher = more signal
Outcome label depends on composite z-score relative to 0.1: at/above gives 1, below gives 0.

Solved cases (5 shown):
Check if composite z-score >= 0.1 (inclusive). Item: `CC(C)Cc1ccc(CN2CC[C@@H](NC(=O)c3ccccc3)C2)cc1`
0

Also, COc1ccc(C(O)C2C=CC3C(=O)N(c4ccccc4)C(=O)C3N2Nc2ccccc2F)c2ccccc12 (configuration not stated) please.
1

Also, `COCCOC(=O)N1C(=O)[C@@]2(c3cc(C#CC4=CCCCC4)ccc31)[C@H](c1ccc(O)cc1)N1[C@H](c3ccccc3)[C@H](c3ccccc3)OC(=O)[C@H]1[C@@H]2C(=O)N1CCc2cc(OC)c(OC)cc2C1` please.
1

Also, `CCOC(=O)C1=CC[C@@H](c2ccccc2)N(S(=O)(=O)c2ccc(C)cc2)[C@@H]1C#N` please.
1

Also, `COCCCNC(=O)[C@@]1(Cc2ccccc2I)c2ccccc2C(=O)N(Cc2ccccc2OC)[C@H]1c1ccc(CO)cc1` please.
0

More entries:
Check if composite z-score >= 0.1 (inclusive). Item: `C=CC[C@H](O)c1ccc(O)c2ccccc12`
1

Also, CN1C(=O)C2C(C1=O)C1C=C(CCCO)C2C(C2CC2)N1C (configuration not stated) please.
0

Also, `CCCCCCc1nc(-c2ccc(OC)nc2)c(C)c2c1[Si](C(C)C)(C(C)C)OC2` please.
0

Also, CCCCN1CC=CC23O[C@@H]4C=CCCOC(=O)C4[C@H]2C(=O)N(CCO)[C@@H]3C1=O (some centres not stated) please.
1

Also, `COC(=O)[C@@]1(Cc2ccc(F)cc2)[C@H]2c3cc(C(=O)N(C)C)n(Cc4ccsc4Br)c3C[C@H]2CN1C(=O)c1ccccc1` please.
1

----------
# protocol_text: basal HepG2 mitochondrial membrane potential changes, profiling panel, cell-based, JC-1 fluorescence, 24 h, 100 nL compound (AID 1167); further: test concentration not given here
# conditions_used: higher = more signal
Outcome label depends on z-score relative to -0.5: at/above gives yes (1), below gives no (0).

Solved cases (5 shown):
Check if z-score >= -0.5 (inclusive). Item: `C=CCNC(=O)[C@H]1[C@@H]2C(=O)O[C@@H](c3ccccc3)[C@@H](c3ccccc3)N2[C@@H](c2ccc(OCCO)cc2)[C@]12C(=O)Nc1ccc(C#Cc3ccc(OC)cc3)cc12`
no (0)

Also, `COc1ccc([Si](C)(C)[C@H]2[C@H](CC(=O)N3CCC[C@H]3CO)O[C@@]3(C(=O)N(C)c4c(Br)cc(C)cc43)[C@@H]2C)cc1` please.
yes (1)

Also, `COCCOC(=O)N1C(=O)[C@@]2(c3cc(C#CC4=CCCCC4)ccc31)[C@H](C(=O)N1CCCCCCC1)[C@H]1C(=O)O[C@H](c3ccccc3)[C@H](c3ccccc3)N1[C@@H]2c1ccccc1OCCO` please.
yes (1)

Also, `Cc1ccc(S[C@]2(C(=O)NCC(C)C)CC(=O)N(C(C)C)[C@@H]2c2ccc(CO)cc2I)cc1` please.
yes (1)

Also, `[N-]=[N+]=Nc1ccccc1C[C@]1(C(N)=O)COC(c2ccc(OCCCO)cc2)=N1` please.
yes (1)

Here's the next entry for you.
Check if z-score >= -0.5 (inclusive). Item: `O=C1N(Cc2ccccc2)Cc2ccccc2C[C@@]12COC(c1ccc(OCCCO)cc1)=N2`
no (0)
